Origin of measurements: patent US20180244611A1

biological target: F508delCFTR (Homo sapiens, UniProt P13569, DEL508-508); construct: expressed in transfected cells; host or cells: CFBE41o- human lung-derived epithelial cells (CFBE41o-F508delCFTR-HRP), doxycycline-inducible; test: Cell Surface Expression-Horse Radish Peroxidase (CSE-HRP) assay, test compound without co-corrector; format: cell-based; conditions: CSE-HRP assay, test compound without co-corrector
Sequence (P13569 with tags, fused parts or gaps DEL508-508): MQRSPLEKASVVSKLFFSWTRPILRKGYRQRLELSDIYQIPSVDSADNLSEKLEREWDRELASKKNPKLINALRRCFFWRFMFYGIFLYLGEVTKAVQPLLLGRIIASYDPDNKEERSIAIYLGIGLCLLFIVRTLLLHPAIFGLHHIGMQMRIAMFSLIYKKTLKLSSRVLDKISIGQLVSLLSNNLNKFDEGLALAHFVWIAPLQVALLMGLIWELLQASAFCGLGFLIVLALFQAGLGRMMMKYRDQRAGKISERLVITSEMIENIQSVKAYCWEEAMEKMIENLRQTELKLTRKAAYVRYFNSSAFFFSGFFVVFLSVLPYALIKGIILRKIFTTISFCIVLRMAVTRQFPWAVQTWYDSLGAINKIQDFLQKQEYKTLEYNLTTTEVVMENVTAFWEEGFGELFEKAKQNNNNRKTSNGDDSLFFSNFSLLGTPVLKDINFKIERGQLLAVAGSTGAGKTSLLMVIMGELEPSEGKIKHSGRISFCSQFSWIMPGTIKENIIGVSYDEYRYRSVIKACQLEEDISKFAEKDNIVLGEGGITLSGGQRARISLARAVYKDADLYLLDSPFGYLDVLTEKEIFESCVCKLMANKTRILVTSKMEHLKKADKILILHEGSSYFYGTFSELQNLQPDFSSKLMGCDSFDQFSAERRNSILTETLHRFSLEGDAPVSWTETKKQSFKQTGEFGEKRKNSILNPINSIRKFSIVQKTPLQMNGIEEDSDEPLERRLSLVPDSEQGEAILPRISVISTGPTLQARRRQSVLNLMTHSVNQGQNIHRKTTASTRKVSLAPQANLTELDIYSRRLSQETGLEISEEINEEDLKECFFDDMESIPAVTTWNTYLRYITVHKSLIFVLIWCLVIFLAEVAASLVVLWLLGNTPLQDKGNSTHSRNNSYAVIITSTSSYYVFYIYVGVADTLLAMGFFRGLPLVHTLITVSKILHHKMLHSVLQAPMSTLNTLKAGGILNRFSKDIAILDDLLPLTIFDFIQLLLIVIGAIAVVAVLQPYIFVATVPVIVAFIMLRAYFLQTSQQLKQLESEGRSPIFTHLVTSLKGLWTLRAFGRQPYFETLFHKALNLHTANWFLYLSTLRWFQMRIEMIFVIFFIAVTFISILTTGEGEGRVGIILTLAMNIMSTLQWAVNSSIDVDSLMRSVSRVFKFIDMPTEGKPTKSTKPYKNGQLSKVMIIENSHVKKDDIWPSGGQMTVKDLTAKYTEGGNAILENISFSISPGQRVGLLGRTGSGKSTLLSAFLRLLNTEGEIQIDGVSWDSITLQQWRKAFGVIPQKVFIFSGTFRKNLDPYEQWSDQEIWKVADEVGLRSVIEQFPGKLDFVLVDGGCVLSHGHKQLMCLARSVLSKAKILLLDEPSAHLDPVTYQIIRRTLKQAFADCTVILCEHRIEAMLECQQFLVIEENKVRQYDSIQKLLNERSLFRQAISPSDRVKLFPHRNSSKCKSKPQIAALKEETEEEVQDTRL
pEC50: −log10 of the molar value.
List of pEC50 values.

Would you please look over these solved cases?
CCC1(C(=O)NS(=O)(=O)c2c(C)cccc2C(F)(F)F)CCc2c(Cl)cccc21 (centres unmarked)
≤ 5.00
COc1ccc(Br)c2c1C(C(=O)NS(=O)(=O)c1ccc(OC)c3ccccc13)CC2 (centres unmarked)
5.00 to 5.52
COc1ccc(C2=CCOCC2)c2c1C(C(=O)NS(=O)(=O)c1cccc3ncccc13)CC2 (centres unmarked)
5.00 to 5.52

Item: Cc1ccc(-c2cccc3c2CCC3C(=O)NS(=O)(=O)c2ccccc2C)o1 (centres unmarked) | pEC50: ≤ 5.00

Item: CCC1(C(=O)NS(=O)(=O)c2cccc(Cl)c2C(=O)O)CCc2c(Cl)cccc21 (centres unmarked) | pEC50: ≤ 5.00

Item: COc1ccc(Br)c2c1C(C(=O)NS(=O)(=O)c1cccc3c(C(=O)O)cccc13)CC2 (centres unmarked) | pEC50: ≤ 5.00

Item: Cc1ccccc1S(=O)(=O)NC(=O)C1CCc2c(-c3cnn(C)c3)cccc21 (centres unmarked) | pEC50: ≤ 5.00

Item: Cc1cc(-c2cccc3c2CCC3C(=O)NS(=O)(=O)c2ccccc2C)ccn1 (centres unmarked) | pEC50: ≤ 5.00

Item: CCC1(C(=O)NS(=O)(=O)c2ccc(Cl)cc2Cl)CCc2c(Cl)cccc21 (centres unmarked) | pEC50: ≤ 5.00
